So I've got IC50 readings for PIK3CG (human), take a look.

Entry `Nc1nc2c(F)cc(-c3cncc(S(=O)(=O)NCC(F)(F)F)c3)cn2n1` has what IC50?
< 10 µM

Would you kindly share the measured IC50 for `Nc1nc2ccc(-c3ccc4c(c3)OCCO4)cn2n1` ?
< 10 µM

Give the measured IC50 of `Nc1nc2ccc(-c3cncc(S(=O)(=O)NCc4ccc(F)cc4)c3)cn2n1` .
< 10 µM

For the compound shown here, `CN(C(C)(C)C)S(=O)(=O)c1cncc(-c2ccc3nc(N)nn3c2)c1` , give the reported IC50.
< 10 µM

Item `CN(C)CCN(C)S(=O)(=O)c1cccc(-c2ccc3nc(N)nn3c2)c1` has what recorded IC50?
< 10 µM
